Where do the numbers come from? From ChEMBL document CHEMBL3739364.

# measured_target: MAO-B (amine oxidase [flavin-containing] B) (Homo sapiens)
# Sequence (P27338 whole entry): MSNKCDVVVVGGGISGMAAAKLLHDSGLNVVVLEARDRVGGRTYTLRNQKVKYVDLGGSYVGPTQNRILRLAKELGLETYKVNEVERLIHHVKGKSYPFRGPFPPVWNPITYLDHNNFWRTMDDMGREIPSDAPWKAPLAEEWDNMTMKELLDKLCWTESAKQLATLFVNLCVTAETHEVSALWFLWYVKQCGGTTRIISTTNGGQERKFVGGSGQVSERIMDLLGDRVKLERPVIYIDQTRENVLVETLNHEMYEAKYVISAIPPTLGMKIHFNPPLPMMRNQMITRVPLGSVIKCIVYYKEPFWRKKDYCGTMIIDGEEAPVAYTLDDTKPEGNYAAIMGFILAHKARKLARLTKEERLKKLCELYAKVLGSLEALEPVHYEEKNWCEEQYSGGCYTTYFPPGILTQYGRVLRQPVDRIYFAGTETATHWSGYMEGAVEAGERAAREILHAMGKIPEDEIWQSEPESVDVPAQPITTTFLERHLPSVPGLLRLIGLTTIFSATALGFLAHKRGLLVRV
# assay: Inhibition of human recombinant MAO-B using p-tyramine as substrate at 50 to 200 uM measured up to 50 mins by ELISA screening analysis
# condition_notes: probe p-tyramine
metric_name: inhibition at 50 min

Let me know recorded inhibition at 50 min for CC(=O)N1CCN(c2ccc(N3C[C@H](CN(OC(=O)C(C)C)C(=O)C(C)C)OC3=O)cc2F)CC1 , thanks.
< 50%

Identify measured inhibition at 50 min associated with CC(=O)NC[C@H]1CN(c2ccc(N3CCOCC3)c(F)c2)C(=O)O1
≥ 50%

For the compound CC(=O)N(O)C[C@H]1CN(c2ccc(N3CCOCC3)c(F)c2)C(=O)O1 , report inhibition at 50 min.
< 50%

---

# Tested on: Haemophilus influenzae
# assay: Antibacterial activity against Haemophilus influenzae ATCC 49247
# Assay type: functional
metric_name: MIC

Give me measured MIC, please, for this compound: CC(=O)N1CCN(c2ccc(N3C[C@H](CN(OC(=O)C4CC4)C(=O)C4CC4)OC3=O)cc2F)CC1
> 32 µg/mL

Write down MIC measured for item O=C(C1CC1)N(O)C[C@H]1CN(c2ccc(N3CCOCC3)c(F)c2)C(=O)O1
> 32 µg/mL

Check the records and state MIC for CCC(=O)N(O)C[C@H]1CN(c2ccc(N3CCOCC3)c(F)c2)C(=O)O1
> 32 µg/mL

Complete the entry with MIC for O=C(ON(C[C@H]1CN(c2ccc(N3CCOCC3)c(F)c2)C(=O)O1)C(=O)C1CC1)C1CC1
> 32 µg/mL

Could you please provide reported MIC for CC(C)C(=O)N(O)C[C@H]1CN(c2ccc(N3CCOCC3)c(F)c2)C(=O)O1 ? Thanks!
> 32 µg/mL

Write down MIC measured for item CCC(=O)N(O)C[C@H]1CN(c2ccc(N3CCN(C(C)=O)CC3)c(F)c2)C(=O)O1
> 32 µg/mL

In one line, give reported MIC of the entry CCC(=O)ON(C[C@H]1CN(c2ccc(N3CCOCC3)c(F)c2)C(=O)O1)C(=O)CC .
> 32 µg/mL

Look up and state reported MIC for CC(=O)ON(C[C@H]1CN(c2ccc(N3CCN(C(C)=O)CC3)c(F)c2)C(=O)O1)C(C)=O
> 32 µg/mL

Item CC(=O)N(O)C[C@H]1CN(c2ccc(N3CCN(C(C)=O)CC3)c(F)c2)C(=O)O1 : provide MIC
> 32 µg/mL

Determine its reported MIC: CC(=O)N1CCN(c2ccc(N3C[C@H](CN(OC(=O)C(C)C)C(=O)C(C)C)OC3=O)cc2F)CC1
> 32 µg/mL

Please look at this compound and report its MIC: CC(=O)N(O)C[C@H]1CN(c2ccc(N3CCOCC3)c(F)c2)C(=O)O1
> 32 µg/mL

For the compound CC(=O)N1CCN(c2ccc(N3C[C@H](CNO)OC3=O)cc2F)CC1.O=C(O)C(F)(F)F , give its measured MIC value.
> 32 µg/mL

Tell me its MIC given CC(C)C(=O)ON(C[C@H]1CN(c2ccc(N3CCOCC3)c(F)c2)C(=O)O1)C(=O)C(C)C as the entry.
> 32 µg/mL

Note MIC for the compound shown: CCC(=O)ON(C[C@H]1CN(c2ccc(N3CCN(C(C)=O)CC3)c(F)c2)C(=O)O1)C(=O)CC
> 32 µg/mL

Give MIC for the following compound: O=C1O[C@@H](CNO)CN1c1ccc(N2CCOCC2)c(F)c1
> 32 µg/mL

Please report MIC for the following compound: CC(=O)ON(C[C@H]1CN(c2ccc(N3CCOCC3)c(F)c2)C(=O)O1)C(C)=O
> 32 µg/mL
